Assay: Solubility in n-hexane
Details: in n-hexane at 25° C. and 0.1 MPa
Overview of reported Solubility (% by mass) across a group of molecules:

{"columns": ["molecule", "Solubility (% by mass)"],
 "data": [
  ["CCN(CC)c1ccc(/N=C2\\C(C#N)=C(C(=O)OC)c3nc(-c4ccc(C(C)(C)C)cc4)nn32)c(C)c1 [Pigment D-106, reference compound]", "≤ 0.05 % by mass"],
  ["CCCCCCN(CCCCCC)c1ccc(N=C2C(=O)N(c3ccccc3)N=C2C(C)(C)C)c(C)c1", "1.1 % by mass"],
  ["CCCCCCCCN(CCCCCCCC)c1ccc(N=C2C(=O)N(c3ccccc3)N=C2C)c(C)c1", "9.5 % by mass"],
  ["CCN(CC)c1ccc(N=C2C(=O)ON=C2C(C)(C)C)cc1 [Pigment D-102, reference compound]", "≤ 0.05 % by mass"],
  ["CCN(CC)c1ccc(N=C2C=C(NC(C)=O)C(=O)C(Cl)=C2C)c(C)c1 [Pigment D-103, reference compound]", "≤ 0.05 % by mass"],
  ["CCCCCCCCN1N=C(C(C)(C)C)C(=Nc2ccc(N(CC)CC)cc2C)C1=O", "8.5 % by mass"],
  ["CCCCCCN(CCCCCC)c1cc(C)c(N=C2C(C#N)=C(C(=O)OC3C(C(C)(C)C)CC(C)CC3C(C)(C)C)c3nc(C(C)(C)C)nn32)c(C)c1 (centres unmarked)", "≥ 15.0 % by mass"],
  ["CCN(CC)c1ccc(N=C2C(=O)N(c3ccccc3)N=C2C)c(C)c1 [Pigment D-101, reference compound]", "0.05 or less % by mass"]
]}
